Data provenance is a melting point compilation (Tetko et al.; mined from patent text by program, amines drawn as free bases though some values may be those of a salt).

quantityKind: melting point

Use the examples below as a reference point.
>  <compound>
Cc1c(C(=O)c2ccc3ccccc3c2)cccc1[N+](=O)[O-]

>  <melting point>
100 to 102 °C

$$$$
>  <compound>
COc1ccc(C(=C/C=C/C(=O)NCCCc2ccncc2)c2ccc(OC)cc2)cc1

>  <melting point>
90 to 92 °C

$$$$
>  <compound>
CCC(C)OC1OCC(O)(N(CC(C)C)C(=O)N(CCCl)N=O)C(O)C1O (stereo unspecified)

>  <melting point>
63 to 65 °C

$$$$
>  <compound>
O=C(Cn1ncc(-c2ccccc2)c1-c1ccccc1)NCCN1CCCC1

>  <melting point>
80 to 84 °C

$$$$
>  <compound>
Cc1cc(CCCCCOc2cc(Cl)c(-c3nnc(C)o3)c(Cl)c2)on1

>  <melting point>
71 to 72 °C

$$$$

Req: Look up melting point: Clc1cccc(OC2CCNc3ncc(-c4ccc(N5CCOCC5)cc4)cc32)c1 (stereo unspecified)
Resp: 124 to 126 °C

Req: Look up melting point: c1ccc2c(OCCNCCCc3c[nH]c4ccccc34)cccc2c1
Resp: 119 to 120 °C

Req: Look up melting point: Cc1c(C(=O)O)nc2c(cc(C)c3nc(C(=O)O)c(C)c(O)c32)c1O
Resp: 205 to 206 °C

Req: Look up melting point: CC(C)(C)C1=CC(=CC(=O)O)C=C(C(C)(C)C)C1=O
Resp: 148 to 150 °C

Req: Look up melting point: c1ccc(-c2nc3n(c2-c2ccccn2)CCS3)nc1
Resp: 142 to 143 °C

----------
Some compounds, each annotated with its measured melting point.

>  <compound>
CCC(=O)Nc1ccc(C2=NN(C(=O)CC)C(C)Cc3cc4c(cc32)OCO4)cc1 (stereo not given)

>  <melting point>
152 to 154 °C

$$$$
>  <compound>
CN(CCCCOCC(=O)O)c1nnc(-c2ccccc2)c(-c2ccccc2)n1

>  <melting point>
108 to 110 °C

$$$$
>  <compound>
CCCCCc1ccc2cc(Nc3ccc(O)cc3)ccc2c1

>  <melting point>
134 to 135 °C

$$$$
>  <compound>
Clc1nc2cc(Br)c(Br)c(Br)c2[nH]1

>  <melting point>
263 to 266 °C

$$$$

Now turn to the next compound.
Req: Look up melting point: O=C1CC2CCS(=O)c3ccccc3C2=NN1c1ccc(Cl)cc1 (stereo not given)
Resp: 190 to 191 °C

----------
Some compounds, each annotated with its measured melting point.

>  <compound>
COc1ccc([N+](=O)[O-])c(N2CCCC2)c1

>  <result>
46 to 48.5 °C

$$$$
>  <compound>
CCN(CC)CCNC(=O)c1nc2ccc(I)cc2[nH]1

>  <result>
136 to 138 °C

$$$$
>  <compound>
S=C(NCc1cccnc1)NC(=Nc1ccccc1)c1ccccc1

>  <result>
146 to 147 °C

$$$$
>  <compound>
O=C(O)C1Cc2ccccc2N1S(=O)(=O)c1ccc(-c2cccc(C(F)(F)F)c2)cc1 (configuration not stated)

>  <result>
108 to 112 °C

$$$$
>  <compound>
NS(=O)(=O)c1ncccc1NC=O

>  <result>
183 °C

$$$$

Req: Look up melting point: CC(NO)C(=O)OC(C)(C)C (configuration not stated)
Resp: 69 to 70 °C

Req: Look up melting point: C1=C(c2ccccc2)CCN(c2nsc3ccccc23)C1
Resp: 272 to 273 °C

Req: Look up melting point: CC[C@H](C1CC1)n1cc(Cl)nc(N2CCc3cc(Br)cc(Cl)c32)c1=O
Resp: 126 to 127 °C

Req: Look up melting point: c1ccc(OCc2ccsc2)cc1
Resp: 49 to 50 °C

Req: Look up melting point: CNC(=O)N(O)C(C)c1ccc(Br)cc1 (configuration not stated)
Resp: 129 to 130 °C

Req: Look up melting point: CCCCN(CCCC)c1ccc(C=Cc2ccc(C=CC3=C(C#N)C(=C(C#N)C#N)OC3(C)C)cc2)cc1
Resp: 224 to 226 °C

Req: Look up melting point: OCc1ncccc1OCc1ccccc1
Resp: 78.7 to 79.2 °C

Req: Look up melting point: Cc1cc(O)n(-c2ccc(N3CCOCC3)nn2)n1
Resp: 189 to 192 °C

Req: Look up melting point: O=C1OC(=O)C2CCCC1C2
Resp: 138 to 140 °C

Req: Look up melting point: Cc1cccc2c1C=Cc1ccccc1C2(C)NO (configuration not stated)
Resp: 127 to 130 °C

----------
Some compounds, each annotated with its measured melting point.

Use the examples below as a reference point.
>  <compound>
C[C@H]1NC(=O)[C@H]1N(NC(=O)OC(C)(C)C)C(=O)OC(C)(C)C

>  <quantityKind>
melting point

>  <result>
147 to 149 °C

$$$$
>  <compound>
CONc1ccc([N+](=O)[O-])cc1[N+](=O)[O-]

>  <quantityKind>
melting point

>  <result>
110 to 112 °C

$$$$
>  <compound>
CNC(=S)NCCCNc1ccccn1

>  <quantityKind>
melting point

>  <result>
134 to 135 °C

$$$$
>  <compound>
OCCOc1cccc(-n2ccnc2)c1

>  <quantityKind>
melting point

>  <result>
81 to 83 °C

$$$$
>  <compound>
CC(C)(C)CC(NC(=O)c1cccc(Cl)c1)Nc1c(Nc2cccnc2)c(=O)c1=O (stereo unspecified)

>  <quantityKind>
melting point

>  <result>
238 to 239 °C

$$$$

Req: Look up melting point: COc1ccc(Nc2ccnc(Nc3cc(OC)c(OC)c(OC)c3)n2)cc1OC
Resp: 86 °C

Req: Look up melting point: CC(C)Oc1ccc(CCCO)c(Oc2ncc(Cl)cc2Cl)c1
Resp: 57 to 59 °C

Req: Look up melting point: O=C(O)c1cccc2cc(Cc3cc(=O)[nH]c(=S)[nH]3)ccc12
Resp: 334 to 337 °C

Req: Look up melting point: C[C@H](NC(=O)C1(C)Oc2cc([N+](=O)[O-])ccc2NC1=O)C(=O)N[C@H](CCC(=O)O)C(=O)O (stereo partly specified)
Resp: 132 to 135 °C

Req: Look up melting point: CC#CCOc1ccc(SC(C(=O)NO)c2cccc3ccccc23)cc1 (stereo unspecified)
Resp: 140 °C

Req: Look up melting point: CCc1ncnc(NC2CCC(c3ccc(Oc4ccc(C(F)(F)F)cn4)cc3)CC2)c1Cl (stereo unspecified)
Resp: 114 to 116 °C

----------
quantityKind: melting point

Use the examples below as a reference point.
>  <molecule>
CCCCNC(=O)c1cc(=O)c(Oc2ccccc2)co1

>  <melting point>
149 to 151 °C

$$$$
>  <molecule>
CCOC(=O)C(C)(C)Oc1cccc(Cc2ccc(C(F)(F)F)cc2)c1

>  <melting point>
50 °C

$$$$
>  <molecule>
CCOC(=O)Cc1nn2c(-c3ccc(OC)cc3)nnc2c2ccccc12

>  <melting point>
201 to 202 °C

$$$$
>  <molecule>
C[C@@H]1OC(=O)N(C(=O)O)[C@H]1c1ccc(F)c(F)c1 (relative stereo)

>  <melting point>
80 to 83 °C

$$$$
>  <molecule>
CC1(C)CC(=O)C1(Br)CC(Cl)(Cl)Cl (configuration not stated)

>  <melting point>
46 to 49 °C

$$$$
>  <molecule>
COc1cc(C(=O)O)cc2c1C(=O)c1ccccc1CC2

>  <melting point>
222 to 227 °C

$$$$
>  <molecule>
CC(=NO)c1ccc(N)c(C(=NO)c2ccccc2F)c1

>  <melting point>
165 °C

$$$$
>  <molecule>
CC1(C)SC(c2ccccc2C(=O)O)NC1C(=O)O (configuration not stated)

>  <melting point>
185 to 186 °C

$$$$

Req: Look up melting point: O=c1c2ccccc2sc2cc(OCC3CO3)cc(O)c12 (configuration not stated)
Resp: 161 °C

Req: Look up melting point: CCO/C(=N/O)C1Cc2cc(C(=O)c3ccccc3F)c(O)c(C)c2O1 (configuration not stated)
Resp: 70 to 71 °C

Req: Look up melting point: CC(C)c1cc(C(=O)Nc2ccc(C(=O)O)nc2)sc1C(C)C
Resp: 216 to 217 °C

Req: Look up melting point: CCCCc1nc(O)c(CC(=O)OCC)c(=O)n1Cc1ccc(C(=O)OC)cc1
Resp: 170 °C

Req: Look up melting point: CN(C)CCCNC(=O)N1CCN(c2ccccc2)CC1
Resp: 91 to 95 °C

Req: Look up melting point: COC(C)C#Cc1ncn2c1CN(C)C(=O)c1c(Cl)cccc1-2 (configuration not stated)
Resp: 139 to 141 °C

Req: Look up melting point: CC(C)(C(=O)O)n1c(=O)[nH]c2cc3ccccc3cc2c1=O
Resp: 273 to 276 °C

Req: Look up melting point: CC(=O)Nc1cc(Oc2ccc3c(C(=O)Nc4cc(-n5cnc(C)c5)cc(C(F)(F)F)c4)cccc3c2)ncn1
Resp: 291 to 293 °C

Req: Look up melting point: CC(C)(C)OC(=O)N(CCN)CCN(CCN)C(=O)OC(C)(C)C
Resp: 81 to 82 °C

Req: Look up melting point: COc1cc2c(cc1C)CCC=C2c1ncc[nH]1
Resp: 197 to 229 °C

Req: Look up melting point: COc1ccc(-c2ccnc(-c3ccccc3)c2)cc1F
Resp: 84 °C
